The measurements presented in this section are drawn from PubChem BioAssay (NCI).

# System: OVCAR-8 ovarian
# measurement notes: NCI-60 one-dose screen, 48 h
# run conditions: 10 µM
The panel holds about 83,000 compounds, 20% with a hit somewhere; the sample as a whole holds those more often. The source made the active and inactive calls. How the source made its calls: active means growth percent below 10; inactive means the rest.
Could you please pick one outcome from this set? YES = active, NO = inactive

Completed entries (count: 5):
1) O=c1c2ccccc2nc(COc2ccccc2)n1/N=C/c1ccc(N2CCCC2)cc1 : NO
2) CCOC(=O)C(Cc1ccccc1)N1C(=O)/C(=C/N2N=C(c3ccc(OC)cc3)CC2c2ccc3ccccc3c2)SC1=S (centres undefined) : NO
3) COc1ccc(/C(C)=N/N=C2C(=O)N(C)c3ccc(Br)cc32)cc1S(N)(=O)=O : NO
4) CC(C)NC(=O)c1cc(-c2ccc(NC(=O)Nc3ccc(N4CCN(C)CC4)c(C(F)(F)F)c3)cc2)nc2cccnc12 : YES
5) CCOc1ccc2ncc(C#Cc3cncc(C(=O)Nc4ccc(CN5CCN(C)CC5)c(C(F)(F)F)c4)c3)n2n1 : YES

Would you kindly look at the next entry?
*Q* Returns: the outcome recorded for COC(=O)c1c(C(=O)OC)c2n(c1C)[C@@H]([C@@H](C)[C@H]1CC[C@H]3[C@@H]4CCC5=CC(=O)CC[C@]5(C)[C@H]4CC[C@]13C)SC2 in this assay.
*A* NO

====

# Test system: MDA-MB-435 melanoma
# measurement notes: NCI-60 one-dose screen, 48 h (100 = growth as untreated, 0 = no growth, -100 = all killed)
# run conditions: 10 µM
Compounds without any hit were thinned out: in the full panel of roughly 83,000, 20% have a hit.
Everything with growth lower than 50% is false (0); everything else, including exactly 50%, is true (1).

Completed entries (count: 3):
1) Cc1cccc(-c2nc(Nc3ccccc3C(=O)O)c3ccccc3n2)c1 : false (0)
2) O=C(CSc1nnc(-c2c[nH]c3ccccc23)n1-c1ccccc1)Nc1ccc(C(=O)/C=C/c2ccccc2Cl)cc1 : true (1)
3) C=C1CCC2C3(C)COC(c4cc(F)cc(F)c4)OC3CCC2(C)C1C/C=C1/C(=O)OCC1O (configuration not stated) : false (0)

*Q* Assess whether reported growth for Cc1noc2c(Cc3ccc([N+](=O)[O-])cc3)nn(CC(=O)N/N=C/c3ccc(Cl)cc3)c(=O)c12 sits at 50% or higher.
*A* true (1)

*Q* Assess whether reported growth for OCCCNc1oc(-c2ccccc2)nc1[P+](c1ccccc1)(c1ccccc1)c1ccccc1 sits at 50% or higher.
*A* false (0)

*Q* Assess whether reported growth for CN1CCN(c2ccc(C(=O)/C=C/c3ccc(OC(F)F)cc3)cc2)CC1 sits at 50% or higher.
*A* false (0)

*Q* Assess whether reported growth for COc1ccc(/C(C)=N/N=C2C(=O)N(C)c3ccc(Br)cc32)cc1S(N)(=O)=O sits at 50% or higher.
*A* true (1)

*Q* Assess whether reported growth for COc1cc2c(cc1OC)/C(=C\c1sc(Nc3ccc(O)cc3)nc1O)C(C(=O)O)=N2 sits at 50% or higher.
*A* false (0)

*Q* Assess whether reported growth for Cc1ccn2c(C(=O)c3ccccc3)cc(-c3cc(-c4ccc(N(C)C)cc4)c(C#N)c(N)n3)c2c1 sits at 50% or higher.
*A* true (1)

*Q* Assess whether reported growth for O=C(NO)c1ccc(Cn2ccc3c(NCc4ccccc4)ncnc32)cc1 sits at 50% or higher.
*A* false (0)

*Q* Assess whether reported growth for CC(=O)c1cc(C(=O)N2c3ccccc3Sc3ccccc32)n2ccc(C)cc12 sits at 50% or higher.
*A* false (0)

*Q* Assess whether reported growth for Cc1ccc(C(C)C)cc1NC(=O)c1ccccc1N(C)C sits at 50% or higher.
*A* true (1)

*Q* Assess whether reported growth for CN1CCc2c(sc3ncnc(N/N=C/c4cn(-c5ccccc5)nc4-c4ccc(Br)cc4)c23)C1 sits at 50% or higher.
*A* true (1)

====

# Tested on: SK-MEL-2 melanoma
# measurement notes: NCI-60 one-dose screen, 48 h
# run conditions: 10 µM
About 83,000 compounds went through this panel and 20% of them were active in at least one assay; those are over-represented in the sample as a whole. Calls of active or inactive are those of the source. The calls were made as follows: active = growth percent below 10; inactive = the rest.
Could you please pick one outcome from this set? active, inactive

1) COc1ccc(CCN2C(=O)/C(=C/c3csc(C#N)n3)SC2=S)cc1OC : inactive

Would you kindly look at the next entry?
*Q* Returns: the outcome recorded for O=C(O)CCCCCCCCCCN1C(=O)/C(=C/c2cnc(-c3ccc(Cl)cc3)s2)SC1=S in this assay.
*A* active

====

# System: SW-620 colon
# measurement notes: NCI-60 one-dose screen, 48 h (100 = growth as untreated, 0 = no growth, -100 = all killed)
# run conditions: 10 µM
Compounds without any hit were thinned out: in the full panel of roughly 83,000, 20% have a hit. Activity calls are given as the source filed them. How the source made its calls: active means growth percent below 10; inactive means the rest.
Listed here are molecules together with their documented growth.

// worked examples, growth included
1) O=C1Nc2cc(-c3ccc(NC(=O)c4cccc([N+](=O)[O-])c4)cc3)ccc2/C1=C/c1ccc[nH]1 : 79.8% (inactive)
2) CCCCCc1ccc(S(=O)(=O)Nc2cc(-c3csc(N(C)C(C)=O)n3)ccc2N2CCN(C)CC2)cc1 : 8.57% (active)
3) Cc1cccc(NC(=O)CSc2nc3ccc(F)cc3c(=O)n2-c2ccc(Cl)cc2)c1C : 80.1% (inactive)
4) COc1ccc(-c2cc(C(=O)N=Nc3c(O)[nH]c4ccc(Br)cc34)c3ccccc3n2)cc1 : -59.9% (active)
5) Cc1ccc2nc(-c3ccc(-c4nnc(SCC(=O)Nc5ccc(Br)cc5)o4)cc3)[nH]c2c1 : 82.8% (inactive)
6) CN1CCN(c2ccc(Nc3nc(N4CCN(S(=O)(=O)c5ccc(Cl)cc5)CC4)c4sccc4n3)cc2)CC1 : -52.2% (active)

*Q* What does the data say about its growth? Entry: CC(C)NC(=O)c1cc(-c2ccc(NC(=O)Nc3ccc(N4CCN(C)CC4)c(C(F)(F)F)c3)cc2)nc2cccnc12
*A* -64.6% (active)

*Q* What does the data say about its growth? Entry: CN1CCN(Cc2ccc(NC(=O)c3cncc(C#Cc4cnc5ccc(N[C@@H]6CCOC6)nn45)c3)cc2C(F)(F)F)CC1
*A* -41.9% (active)

====

# System: MDA-MB-435 melanoma
# measurement notes: NCI-60 one-dose screen, 48 h
# run conditions: 10 µM
The panel holds about 83,000 compounds, 20% with a hit somewhere; the sample as a whole holds those more often. The source made the active and inactive calls. Rule for the calls: active = growth percent below 10; inactive = the rest.
Could you please pick one outcome from this set? yes (active), no (inactive)

1. COc1ccc(C2NC(=S)NC(C)=C2C(=O)OC(C)C)cc1OC (centres undefined) : no
2. O=C(CNc1nc(-c2ccccc2)cs1)Nc1cccc([N+](=O)[O-])c1 : yes

*Q* Returns: the outcome recorded for Cc1ccc2nc(-c3ccc(-c4nnc(SCC(=O)Nc5ccc(Br)cc5)o4)cc3)[nH]c2c1 in this assay.
*A* no

*Q* Returns: the outcome recorded for CN1CCN(c2ccc(Nc3nc(NCCCNC(=O)c4ccccc4)c4sccc4n3)cc2)CC1 in this assay.
*A* no

*Q* Returns: the outcome recorded for O=C(CSc1nnc(-c2c[nH]c3ccccc23)n1-c1ccccc1)c1ccc(Br)cc1 in this assay.
*A* no

*Q* Returns: the outcome recorded for COc1ccc2nc(Cl)c(-c3cc(-c4ccccc4)nc(N)n3)cc2c1 in this assay.
*A* no

*Q* Returns: the outcome recorded for O=C(NC(=S)N1CCN(c2ncnc3c2cnn3-c2ccccc2)CC1)c1ccc(Cl)cc1 in this assay.
*A* no

*Q* Returns: the outcome recorded for O=c1oc2ccc(-c3ccc(F)cc3F)cc2c(=O)n1-c1ccc(Cl)c(C(F)(F)F)c1 in this assay.
*A* yes

*Q* Returns: the outcome recorded for COc1ccc(OC)c(/C=N/NC(=O)c2ccc3nc(-c4ccc(Cl)cc4)[nH]c3c2)c1 in this assay.
*A* no

====

Listed here are molecules together with their documented growth.
# Test system: K-562 leukemia
# measurement notes: NCI-60 one-dose screen, 48 h (100 = growth as untreated, 0 = no growth, -100 = all killed)
# run conditions: 10 µM
About 83,000 compounds went through this panel and 20% of them were active in at least one assay; those are over-represented in the sample as a whole.
Kindly answer with a numeric value in %, unit omitted.

// worked examples, growth included
1) CN(C(=O)c1ccc(C(C)(C)C)cc1)c1sc2c(c1C#N)CCC(=O)C2 : 11.7
2) Cc1ccc(-c2cc(-c3cc4ccccc4nc3Cl)[nH]c(=S)n2)cc1 : 18.6
3) Nc1nnc(-c2c[nH]c3ncccc23)c(-c2c[nH]c3ccc(Br)cc23)n1 : 32.9
4) O=C(NO)c1ccc(CN2CCN(c3nc(-c4ccccc4)c4ccccc4n3)CC2)cc1 : 11.4
5) COc1cc(NC(=O)CSc2nnc(-c3ccc4nc(-c5ccc(Cl)cc5)[nH]c4c3)o2)cc(OC)c1OC : 31.3

*Q* What does the data say about its growth? Entry: O=C(CNc1nc(-c2ccccc2)cs1)Nc1cccc([N+](=O)[O-])c1
*A* 8.88

*Q* What does the data say about its growth? Entry: O=C(c1ccc(O)cc1)C1[C@H](c2ccccc2Br)[C@@H](c2ccccc2)NC12C(=O)Nc1ccc(Br)cc12 (some centres undefined)
*A* 29.9

*Q* What does the data say about its growth? Entry: COc1ccc(C2N(c3ccc(Br)cc3)N=C(C(C)=O)N2[C@H]2[C@H](OC(C)=O)O[C@H](COC(C)=O)[C@@H](OC(C)=O)[C@@H]2OC(C)=O)cc1 (some centres undefined)
*A* 65

*Q* What does the data say about its growth? Entry: O=C(CSc1nnc(-c2ccc3nc(-c4ccc(Cl)cc4)[nH]c3c2)o1)Nc1ccc(Br)cc1
*A* 5.15
